Every entry's value here was drawn from ChEMBL document CHEMBL2424622.

- Assayed System: Serine/threonine-protein kinase BRSK2 (Homo sapiens) (UniProt Q8IWQ3)
- Sequence (Q8IWQ3 whole entry): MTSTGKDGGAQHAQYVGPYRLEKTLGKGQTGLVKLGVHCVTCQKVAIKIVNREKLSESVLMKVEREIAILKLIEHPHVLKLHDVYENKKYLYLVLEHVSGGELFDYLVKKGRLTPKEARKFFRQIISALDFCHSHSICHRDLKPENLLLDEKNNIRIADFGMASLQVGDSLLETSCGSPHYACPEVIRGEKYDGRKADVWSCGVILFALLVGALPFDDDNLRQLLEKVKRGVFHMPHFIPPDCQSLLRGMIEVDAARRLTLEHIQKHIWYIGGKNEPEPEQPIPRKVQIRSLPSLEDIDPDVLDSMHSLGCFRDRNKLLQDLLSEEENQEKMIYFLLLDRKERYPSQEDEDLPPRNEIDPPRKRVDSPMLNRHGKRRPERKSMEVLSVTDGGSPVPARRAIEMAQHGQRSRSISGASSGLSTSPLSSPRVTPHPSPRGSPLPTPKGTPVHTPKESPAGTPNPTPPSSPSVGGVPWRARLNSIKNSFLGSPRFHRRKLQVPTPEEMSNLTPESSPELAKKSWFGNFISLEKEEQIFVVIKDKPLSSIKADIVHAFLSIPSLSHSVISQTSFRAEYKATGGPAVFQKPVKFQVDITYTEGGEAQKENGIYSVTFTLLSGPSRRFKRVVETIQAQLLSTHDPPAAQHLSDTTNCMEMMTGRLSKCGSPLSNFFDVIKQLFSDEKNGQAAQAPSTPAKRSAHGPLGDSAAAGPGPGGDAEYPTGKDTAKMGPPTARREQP
- Protocol Description: Competitive binding affinity to BRSK2 (unknown origin) at 10 uM in presence of ATP relative to control
Items are presented alongside their recorded inhibition.
Measured Quantity: inhibition

> print(dat)
                                        smi  measured.quantity  reported.value
1  O[C@H]1CC[C@H](Nc2nccc(-n3ncc4ccccc43)n2)CC1         inhibition           < 50%
2  O[C@H]1CC[C@H](Nc2nccc(-c3n[nH]c4ccccc34)n2)CC1         inhibition             69%
3  O[C@H]1CC[C@H](Nc2nccc(-n3nnc4ccccc43)n2)CC1         inhibition           < 50%
4  O[C@H]1CC[C@H](Nc2nccc(-n3ccc4ccccc43)n2)CC1         inhibition           < 50%

====

- Assayed System: Serine/threonine-protein kinase PAK 2 (Homo sapiens) (UniProt Q13177)
- Sequence (Q13177 whole entry): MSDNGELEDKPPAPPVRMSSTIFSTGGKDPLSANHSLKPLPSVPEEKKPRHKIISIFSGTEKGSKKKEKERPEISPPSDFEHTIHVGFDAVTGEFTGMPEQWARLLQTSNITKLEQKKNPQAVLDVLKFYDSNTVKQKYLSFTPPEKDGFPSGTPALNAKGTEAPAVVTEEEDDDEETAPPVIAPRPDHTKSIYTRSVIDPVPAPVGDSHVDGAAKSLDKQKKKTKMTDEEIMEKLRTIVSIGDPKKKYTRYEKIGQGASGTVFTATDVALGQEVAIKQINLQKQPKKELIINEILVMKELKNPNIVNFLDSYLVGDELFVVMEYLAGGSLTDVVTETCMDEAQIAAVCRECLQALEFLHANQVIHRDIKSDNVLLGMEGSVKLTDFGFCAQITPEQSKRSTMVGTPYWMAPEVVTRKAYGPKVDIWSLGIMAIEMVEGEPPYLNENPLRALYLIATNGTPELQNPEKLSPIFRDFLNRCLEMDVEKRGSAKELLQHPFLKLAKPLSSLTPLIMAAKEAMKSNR
- Protocol Description: Competitive binding affinity to PAK2 (unknown origin) at 10 uM in presence of ATP relative to control
Measured inhibition accompanies every entry in the list below.
Measured Quantity: inhibition

> print(dat)
                                        smi  measured.quantity  reported.value
1  O[C@H]1CC[C@H](Nc2nccc(-c3n[nH]c4ccccc34)n2)CC1         inhibition             82%
2  O[C@H]1CC[C@H](Nc2nccc(-n3nnc4ccccc43)n2)CC1         inhibition           < 50%
3  O[C@H]1CC[C@H](Nc2nccc(-n3ncc4ccccc43)n2)CC1         inhibition           < 50%
4  O[C@H]1CC[C@H](Nc2nccc(-n3ccc4ccccc43)n2)CC1         inhibition           < 50%

====

- Assayed System: Mitogen-activated protein kinase 10 (Homo sapiens, UniProt P53779)
- Sequence (P53779 whole entry): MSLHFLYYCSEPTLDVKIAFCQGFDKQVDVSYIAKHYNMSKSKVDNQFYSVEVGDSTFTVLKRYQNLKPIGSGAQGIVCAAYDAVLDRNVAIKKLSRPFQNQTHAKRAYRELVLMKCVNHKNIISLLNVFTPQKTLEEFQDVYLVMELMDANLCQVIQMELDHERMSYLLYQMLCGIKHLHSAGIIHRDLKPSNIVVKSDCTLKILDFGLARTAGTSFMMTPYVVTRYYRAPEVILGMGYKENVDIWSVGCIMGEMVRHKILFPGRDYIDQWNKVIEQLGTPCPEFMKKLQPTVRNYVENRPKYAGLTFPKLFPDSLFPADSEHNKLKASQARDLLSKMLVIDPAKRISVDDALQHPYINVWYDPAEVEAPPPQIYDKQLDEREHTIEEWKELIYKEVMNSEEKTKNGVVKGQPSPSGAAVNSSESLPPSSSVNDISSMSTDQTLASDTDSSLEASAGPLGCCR
- Protocol Description: Inhibition of human JNK3 assessed as inhibition of GST-tagged ATF2 (19 to 96) phosphorylation incubated for 10 mins prior to substrate addition measured after 30 mins by scintillation counting analysis in presence of [gamma-33P]-ATP
Measured Quantity: IC50

> print(dat)
                                        smi  reported.value
1  CS(=O)(=O)N[C@H]1CC[C@H](Nc2nccc(-n3nnc4ccccc43)n2)CC1          114 nM

====

# inhibition per entry
- Assayed System: Protein-tyrosine kinase 6 (Homo sapiens) (UniProt Q13882)
- Sequence (Q13882 whole entry, looked up): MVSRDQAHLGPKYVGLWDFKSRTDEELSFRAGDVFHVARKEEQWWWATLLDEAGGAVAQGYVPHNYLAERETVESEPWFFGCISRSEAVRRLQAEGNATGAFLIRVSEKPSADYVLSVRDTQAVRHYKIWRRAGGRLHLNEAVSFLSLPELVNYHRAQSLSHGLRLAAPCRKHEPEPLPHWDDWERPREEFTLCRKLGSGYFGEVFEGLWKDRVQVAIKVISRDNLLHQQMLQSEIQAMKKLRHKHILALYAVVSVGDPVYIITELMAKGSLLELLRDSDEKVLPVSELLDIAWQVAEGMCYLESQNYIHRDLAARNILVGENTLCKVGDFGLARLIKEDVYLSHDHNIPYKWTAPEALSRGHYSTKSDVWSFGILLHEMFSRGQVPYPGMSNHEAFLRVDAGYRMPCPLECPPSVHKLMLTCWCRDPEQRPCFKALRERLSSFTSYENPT
- Protocol Description: Competitive binding affinity to PTK6 (unknown origin) at 10 uM in presence of ATP relative to control
Measured Quantity: inhibition

> print(dat)
                                        smi                            assayed.system  reported.value
1  N[C@H]1CC[C@H](Nc2nccc(-n3nnc4ccccc43)n2)CC1  Protein-tyrosine kinase 6 (Homo sapiens) (UniProt Q13882)           < 50%
2  O[C@H]1CC[C@H](Nc2nccc(-n3nnc4ccccc43)n2)CC1  Protein-tyrosine kinase 6 (Homo sapiens) (UniProt Q13882)           < 50%
3  O[C@H]1CC[C@H](Nc2nccc(-c3n[nH]c4ccccc34)n2)CC1  Protein-tyrosine kinase 6 (Homo sapiens) (UniProt Q13882)             78%
4  O=C([C@H]1CC[C@H](Nc2nccc(-n3nnc4ccccc43)n2)CC1)N1CCOCC1  Protein-tyrosine kinase 6 (Homo sapiens) (UniProt Q13882)           < 50%
5  O[C@H]1CC[C@H](Nc2nccc(-n3ccc4ccccc43)n2)CC1  Protein-tyrosine kinase 6 (Homo sapiens) (UniProt Q13882)           < 50%
6  O[C@H]1CC[C@H](Nc2nccc(-n3ncc4ccccc43)n2)CC1  Protein-tyrosine kinase 6 (Homo sapiens) (UniProt Q13882)           < 50%

====

- Assayed System: Serine/threonine-protein kinase PLK4 (Homo sapiens) (UniProt O00444)
- Sequence (whole entry): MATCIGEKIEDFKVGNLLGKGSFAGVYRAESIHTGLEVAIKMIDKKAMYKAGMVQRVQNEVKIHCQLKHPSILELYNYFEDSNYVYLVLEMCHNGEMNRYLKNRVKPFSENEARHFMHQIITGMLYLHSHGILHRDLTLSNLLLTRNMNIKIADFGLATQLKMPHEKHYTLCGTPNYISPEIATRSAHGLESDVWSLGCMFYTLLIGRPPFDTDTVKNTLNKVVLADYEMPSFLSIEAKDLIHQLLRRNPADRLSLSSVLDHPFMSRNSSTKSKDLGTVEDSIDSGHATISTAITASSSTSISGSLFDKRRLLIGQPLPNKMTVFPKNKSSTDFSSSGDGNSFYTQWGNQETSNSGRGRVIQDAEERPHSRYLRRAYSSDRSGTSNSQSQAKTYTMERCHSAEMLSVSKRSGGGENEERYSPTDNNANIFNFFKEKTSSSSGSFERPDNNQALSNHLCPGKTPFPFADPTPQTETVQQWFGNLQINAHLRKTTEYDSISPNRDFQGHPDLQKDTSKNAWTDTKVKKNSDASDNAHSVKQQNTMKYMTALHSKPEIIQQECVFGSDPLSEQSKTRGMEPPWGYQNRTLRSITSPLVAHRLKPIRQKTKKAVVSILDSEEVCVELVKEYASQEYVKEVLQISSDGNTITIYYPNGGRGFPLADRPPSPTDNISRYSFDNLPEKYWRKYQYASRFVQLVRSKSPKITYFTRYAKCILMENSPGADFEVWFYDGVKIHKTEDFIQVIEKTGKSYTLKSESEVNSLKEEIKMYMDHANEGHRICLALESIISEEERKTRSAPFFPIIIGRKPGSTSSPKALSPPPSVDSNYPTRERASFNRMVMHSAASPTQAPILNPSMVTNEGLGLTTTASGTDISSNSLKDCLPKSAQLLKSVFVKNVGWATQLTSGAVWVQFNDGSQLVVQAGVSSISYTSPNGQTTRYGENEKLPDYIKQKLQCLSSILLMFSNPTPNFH
- Protocol Description: Competitive binding affinity to PLK4 (unknown origin) at 10 uM in presence of ATP relative to control
Measured Quantity: inhibition

> print(dat)
                                        smi  reported.value
1  O[C@H]1CC[C@H](Nc2nccc(-n3ccc4ccccc43)n2)CC1           < 50%
2  N[C@H]1CC[C@H](Nc2nccc(-n3nnc4ccccc43)n2)CC1           < 50%
3  O[C@H]1CC[C@H](Nc2nccc(-n3nnc4ccccc43)n2)CC1           < 50%

====

inhibition by entry:
- Assayed System: Calcium/calmodulin-dependent protein kinase type 1 (Homo sapiens)
- Sequence (Q14012 whole entry, looked up): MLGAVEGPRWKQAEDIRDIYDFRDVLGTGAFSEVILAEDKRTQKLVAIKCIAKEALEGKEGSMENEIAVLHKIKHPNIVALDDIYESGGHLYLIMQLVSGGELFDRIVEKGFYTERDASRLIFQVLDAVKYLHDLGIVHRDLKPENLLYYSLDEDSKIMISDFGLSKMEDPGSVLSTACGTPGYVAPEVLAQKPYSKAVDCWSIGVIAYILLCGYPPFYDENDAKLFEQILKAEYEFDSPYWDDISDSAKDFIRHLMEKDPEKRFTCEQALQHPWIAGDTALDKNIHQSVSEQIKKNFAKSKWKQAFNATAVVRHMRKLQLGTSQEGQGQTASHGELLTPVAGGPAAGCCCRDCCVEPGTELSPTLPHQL
- Protocol Description: Competitive binding affinity to CAMK1 (unknown origin) at 10 uM in presence of ATP relative to control
Measured Quantity: inhibition

> print(dat)
                                        smi                            assayed.system  measured.quantity  reported.value
1  O[C@H]1CC[C@H](Nc2nccc(-n3nnc4ccccc43)n2)CC1  Calcium/calmodulin-dependent protein kinase type 1 (Homo sapiens)         inhibition           < 50%
2  O=C([C@H]1CC[C@H](Nc2nccc(-n3nnc4ccccc43)n2)CC1)N1CCOCC1  Calcium/calmodulin-dependent protein kinase type 1 (Homo sapiens)         inhibition           < 50%
3  CS(=O)(=O)CCCOc1cccc2c1ccn2-c1ccnc(N[C@H]2CC[C@H](C(=O)N3CCC(O)CC3)CC2)n1  Calcium/calmodulin-dependent protein kinase type 1 (Homo sapiens)         inhibition           > 85%

====

- Assayed System: Mitogen-activated protein kinase kinase kinase kinase 5 (Homo sapiens)
- Protocol Description: Competitive binding affinity to MAP4K5 (unknown origin) at 10 uM in presence of ATP relative to control
Measured Quantity: inhibition

> print(dat)
                                        smi  reported.value
1  O[C@H]1CC[C@H](Nc2nccc(-c3n[nH]c4ccccc34)n2)CC1             99%
2  O=C([C@H]1CC[C@H](Nc2nccc(-n3nnc4ccccc43)n2)CC1)N1CCOCC1           < 50%
3  O[C@H]1CC[C@H](Nc2nccc(-n3nnc4ccccc43)n2)CC1           < 50%

====

- Assayed System: Cyclin-dependent kinase 5 (Homo sapiens) (UniProt Q00535)
- Sequence (Q00535 whole entry, looked up): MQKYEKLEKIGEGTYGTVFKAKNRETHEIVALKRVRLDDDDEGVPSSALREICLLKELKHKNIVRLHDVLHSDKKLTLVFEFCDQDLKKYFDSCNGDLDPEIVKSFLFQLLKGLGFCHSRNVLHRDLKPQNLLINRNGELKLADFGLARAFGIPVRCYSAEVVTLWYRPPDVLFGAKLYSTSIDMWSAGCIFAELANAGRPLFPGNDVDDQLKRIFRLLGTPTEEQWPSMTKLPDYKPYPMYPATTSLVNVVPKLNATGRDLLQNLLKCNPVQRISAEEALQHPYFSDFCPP
- Protocol Description: Competitive binding affinity to CDK5 (unknown origin) at 10 uM in presence of ATP relative to control
List of inhibition values.
Measured Quantity: inhibition

> print(dat)
                                        smi  reported.value
1  O[C@H]1CC[C@H](Nc2nccc(-n3ncc4ccccc43)n2)CC1           < 50%
2  O=C([C@H]1CC[C@H](Nc2nccc(-n3nnc4ccccc43)n2)CC1)N1CCOCC1           < 50%
3  O[C@H]1CC[C@H](Nc2nccc(-n3ccc4ccccc43)n2)CC1           < 50%
